The origin of these recorded values is paper PMC9026082.

Structures can show the parent of a compound that is named as a salt.
PROPERTY: melting point

Reference set, count: 3
CCN(CC)c1ccc2c(-c3ccccc3C(=O)N3CCCN(C(=O)[C@]45CCC(C)(C)C[C@H]4C4=CC[C@@H]6[C@@]7(C)CC[C@H](OC(C)=O)[C@@](C)(COC(C)=O)[C@@H]7CC[C@@]6(C)[C@]4(C)CC5)CC3)c3ccc(=[N+](CC)CC)cc-3oc2c1 (as salt: chloride): 243 to 248 °C
CC(=O)OC[C@@]1(C)[C@@H]2CC[C@]3(C)[C@H](CC=C4[C@@H]5CC(C)(C)CC[C@]5(C(=O)NCc5ccccc5)CC[C@]43C)[C@@]2(C)CC[C@@H]1OC(C)=O: 210 to 214 °C
CC(=O)OC[C@@]1(C)[C@@H]2CC[C@]3(C)[C@H](CC=C4[C@@H]5CC(C)(C)CC[C@]5(C(=O)N5CCCNCC5)CC[C@]43C)[C@@]2(C)CC[C@@H]1OC(C)=O: 176 to 180 °C

Continue with the molecule presented below.
Given the molecule CCN(CC)c1ccc2c(-c3ccccc3C(=O)N3CCCN(C(=O)[C@]45CC[C@@H](C)[C@H](C)[C@H]4C4=CC[C@@H]6[C@@]7(C)C[C@@H](OC(C)=O)[C@H](OC(C)=O)[C@@](C)(COC(C)=O)[C@@H]7[C@H](O)C[C@@]6(C)[C@]4(C)CC5)CC3)c3ccc(=[N+](CC)CC)cc-3oc2c1 (as salt: chloride) , what is its reported melting point? 269 to 273 °C

* * *

Please go through the items and note down their EC50.
Tested on: several human tumor cell lines (A375, HT29, MCF-7, A2780, and HeLa)
Experiment: SRB assays, cell line not given
Type: cell-based
Settings: Homo sapiens; SRB assays; lowest value of the series, cell line not stated; read-out: EC50 values as low as (analogs of madecassic acid)

Below: 4 compounds and their reported EC50.
C[C@H]1[C@H](C)CC[C@]2(C(=O)O)CC[C@]3(C)C(=CC[C@@H]4[C@@]5(C)C[C@@H](O)[C@H](O)[C@@](C)(CO)[C@@H]5[C@H](O)C[C@]43C)[C@H]12 [Compound 3, Madecassic Acid]: ≥ 15 nM
CC(=O)OC[C@@]1(C)[C@@H]2[C@H](O)C[C@]3(C)[C@H](CC=C4[C@@H]5[C@@H](C)[C@H](C)CC[C@]5(C(=O)Nc5ccccc5)CC[C@]43C)[C@@]2(C)C[C@@H](OC(C)=O)[C@@H]1OC(C)=O [Compound 16]: ≥ 15 nM
CC(=O)OC[C@@]1(C)[C@@H]2[C@H](O)C[C@]3(C)[C@H](CC=C4[C@@H]5[C@@H](C)[C@H](C)CC[C@]5(C(=O)O)CC[C@]43C)[C@@]2(C)C[C@@H](OC(C)=O)[C@@H]1OC(C)=O [Compound 6]: ≥ 15 nM
CC(=O)OC[C@@]1(C)[C@@H]2[C@H](O)C[C@]3(C)[C@H](CC=C4[C@@H]5[C@@H](C)[C@H](C)CC[C@]5(C(=O)NCc5ccccc5)CC[C@]43C)[C@@]2(C)C[C@@H](OC(C)=O)[C@@H]1OC(C)=O [Compound 15]: ≥ 15 nM

Recorded EC50 of CCN(CC)c1ccc2c(-c3ccccc3C(=O)N3CCN(C(=O)[C@]45CC[C@@H](C)[C@H](C)[C@H]4C4=CC[C@@H]6[C@@]7(C)C[C@@H](OC(C)=O)[C@H](OC(C)=O)[C@@](C)(COC(C)=O)[C@@H]7[C@H](O)C[C@@]6(C)[C@]4(C)CC5)CC3)c3ccc(=[N+](CC)CC)cc-3oc2c1 [Compound 23] , please. ≥ 15 nM

* * *

System: MCF7 (breast adenocarcinoma)
Experiment: SRB cytotoxicity assay, MCF7
Format: cell-based, human
Settings: Homo sapiens, MCF7, 72 h of treatment, cut-off 30 μM
PROPERTY: log10 of EC50 (log10 of the value in µM)
Field: value | Transform: log10 | Quantity: EC50 | Unit: µM

CC(=O)O[C@H]1CC[C@]2(C)[C@H]3CC=C4[C@@H]5CC(C)(C)CC[C@]5(C(=O)O)CC[C@@]4(C)[C@]3(C)CC[C@H]2[C@]1(C)C=O [Compound 4]: 1.39
CC1(C)CC[C@]2(C(=O)O)CC[C@]3(C)C(=CC[C@@H]4[C@@]5(C)CC[C@H](O)[C@@](C)(CO)[C@@H]5CC[C@]43C)[C@@H]2C1 [Compound 2]: 1.41
CCN(CC)c1ccc2c(-c3ccccc3C(=O)N3CCCN(C(=O)[C@]45CCC(C)(C)C[C@H]4C4=CC[C@@H]6[C@@]7(C)CC[C@H](OC(C)=O)[C@@](C)(COC(C)=O)[C@@H]7CC[C@@]6(C)[C@]4(C)CC5)CC3)c3ccc(=[N+](CC)CC)cc-3oc2c1 [Compound 22]: -1.07
CC(=O)OC[C@@]1(C)[C@@H]2[C@H](O)C[C@]3(C)[C@H](CC=C4[C@@H]5[C@@H](C)[C@H](C)CC[C@]5(C(=O)O)CC[C@]43C)[C@@]2(C)C[C@@H](OC(C)=O)[C@@H]1OC(C)=O [Compound 6]: 0.85
CCN(CC)c1ccc2c(-c3ccccc3C(=O)N3CCCN(C(=O)[C@]45CC[C@@H](C)[C@H](C)[C@H]4C4=CC[C@@H]6[C@@]7(C)C[C@@H](OC(C)=O)[C@H](OC(C)=O)[C@@](C)(COC(C)=O)[C@@H]7[C@H](O)C[C@@]6(C)[C@]4(C)CC5)CC3)c3ccc(=[N+](CC)CC)cc-3oc2c1 [Compound 24]: -1.79

Hey, quick one: what's log10 of EC50 for each of these?
1. CC(=O)OC[C@@]1(C)[C@@H]2CC[C@]3(C)[C@H](CC=C4[C@@H]5CC(C)(C)CC[C@]5(C(=O)O)CC[C@]43C)[C@@]2(C)CC[C@@H]1OC(C)=O [Compound 5]
2. CC(=O)O[C@H]1CC[C@]2(C)[C@H]3CC=C4[C@@H]5CC(C)(C)CC[C@]5(C(=O)NCc5ccccc5)CC[C@@]4(C)[C@]3(C)CC[C@H]2[C@]1(C)C=O [Compound 7]
3. CC(=O)OC[C@@]1(C)[C@@H]2CC[C@]3(C)[C@H](CC=C4[C@@H]5CC(C)(C)CC[C@]5(C(=O)Nc5ccccc5)CC[C@]43C)[C@@]2(C)CC[C@@H]1OC(C)=O [Compound 12]

0.99
0.94
0.28

* * *

Tested on: A2780 (ovarian carcinoma)
Test: SRB cytotoxicity assay, A2780
Assay type: cell-based, human
Details: Homo sapiens, A2780; SRB assay, 72 h of treatment; cut-off 30 μM
Record form. Attribute: EC50. Fill in for each entry.
One number for each entry, in nM.

COc1cccc2c1C(=O)c1c(O)c3c(c(O)c1C2=O)C[C@@](O)(C(=O)CO)C[C@@H]3O[C@H]1C[C@H](N)[C@H](O)[C@H](C)O1 [DX, Doxorubicin, reference compound]: 20

For each of the items listed, what is its EC50?
1. CC(=O)OC[C@@]1(C)[C@@H]2[C@H](O)C[C@]3(C)[C@H](CC=C4[C@@H]5[C@@H](C)[C@H](C)CC[C@]5(C(=O)NCc5ccccc5)CC[C@]43C)[C@@]2(C)C[C@@H](OC(C)=O)[C@@H]1OC(C)=O
2. CCN(CC)c1ccc2c(-c3ccccc3C(=O)N3CCCN(C(=O)[C@]45CC[C@@H](C)[C@H](C)[C@H]4C4=CC[C@@H]6[C@@]7(C)C[C@@H](OC(C)=O)[C@H](OC(C)=O)[C@@](C)(COC(C)=O)[C@@H]7[C@H](O)C[C@@]6(C)[C@]4(C)CC5)CC3)c3ccc(=[N+](CC)CC)cc-3oc2c1
3. CC(=O)O[C@H]1CC[C@]2(C)[C@H]3CC=C4[C@@H]5CC(C)(C)CC[C@]5(C(=O)NCc5ccccc5)CC[C@@]4(C)[C@]3(C)CC[C@H]2[C@]1(C)C=O

1400
2.9
4400

* * *

Tested on: A2780 (ovarian carcinoma)
Experiment: SRB cytotoxicity assay, A2780
Type: cell-based, human
Conditions: Homo sapiens, A2780; SRB assay, 72 h of treatment; cut-off 30 μM
PROPERTY: EC50 (µM)
Give bare numbers, in µM.

CC(=O)OC[C@@]1(C)[C@@H]2[C@H](O)C[C@]3(C)[C@H](CC=C4[C@@H]5[C@@H](C)[C@H](C)CC[C@]5(C(=O)Nc5ccccc5)CC[C@]43C)[C@@]2(C)C[C@@H](OC(C)=O)[C@@H]1OC(C)=O: 2.2

Entry `CC1(C)CC[C@]2(C(=O)O)CC[C@]3(C)C(=CC[C@@H]4[C@@]5(C)CC[C@H](O)[C@@](C)(CO)[C@@H]5CC[C@]43C)[C@@H]2C1` has what EC50? 19.6

* * *

Where a name gives a salt, the structure may show the parent alone.
PROPERTY: melting point

Solved entries (count: 5):
CC(=O)OC[C@@]1(C)[C@@H]2[C@H](O)C[C@]3(C)[C@H](CC=C4[C@@H]5[C@@H](C)[C@H](C)CC[C@]5(C(=O)N5CCNCC5)CC[C@]43C)[C@@]2(C)C[C@@H](OC(C)=O)[C@@H]1OC(C)=O [Compound 17]: 133 to 138 °C
CC(=O)OC[C@@]1(C)[C@@H]2CC[C@]3(C)[C@H](CC=C4[C@@H]5CC(C)(C)CC[C@]5(C(=O)Nc5ccccc5)CC[C@]43C)[C@@]2(C)CC[C@@H]1OC(C)=O [Compound 12]: 210 to 214 °C
CC(=O)OC[C@@]1(C)[C@@H]2[C@H](O)C[C@]3(C)[C@H](CC=C4[C@@H]5[C@@H](C)[C@H](C)CC[C@]5(C(=O)NCc5ccccc5)CC[C@]43C)[C@@]2(C)C[C@@H](OC(C)=O)[C@@H]1OC(C)=O [Compound 15]: 90 to 95 °C
CC(=O)OC[C@@]1(C)[C@@H]2CC[C@]3(C)[C@H](CC=C4[C@@H]5CC(C)(C)CC[C@]5(C(=O)O)CC[C@]43C)[C@@]2(C)CC[C@@H]1OC(C)=O [Compound 5]: 185 to 189 °C
CC(=O)OC[C@@]1(C)[C@@H]2CC[C@]3(C)[C@H](CC=C4[C@@H]5CC(C)(C)CC[C@]5(C(=O)N5CCNCC5)CC[C@]43C)[C@@]2(C)CC[C@@H]1OC(C)=O [Compound 13]: 183 to 187 °C

Could I get melting point for every one of these entries?
1. CC(=O)O[C@H]1CC[C@]2(C)[C@H]3CC=C4[C@@H]5CC(C)(C)CC[C@]5(C(=O)Nc5ccccc5)CC[C@@]4(C)[C@]3(C)CC[C@H]2[C@]1(C)C=O [Compound 8]
2. CC(=O)O[C@H]1CC[C@]2(C)[C@H]3CC=C4[C@@H]5CC(C)(C)CC[C@]5(C(=O)NCc5ccccc5)CC[C@@]4(C)[C@]3(C)CC[C@H]2[C@]1(C)C=O [Compound 7]
3. CC(=O)O[C@H]1CC[C@]2(C)[C@H]3CC=C4[C@@H]5CC(C)(C)CC[C@]5(C(=O)N5CCNCC5)CC[C@@]4(C)[C@]3(C)CC[C@H]2[C@]1(C)C=O [Compound 9]
4. CCN(CC)c1ccc2c(-c3ccccc3C(=O)N3CCN(C(=O)[C@]45CC[C@@H](C)[C@H](C)[C@H]4C4=CC[C@@H]6[C@@]7(C)C[C@@H](OC(C)=O)[C@H](OC(C)=O)[C@@](C)(COC(C)=O)[C@@H]7[C@H](O)C[C@@]6(C)[C@]4(C)CC5)CC3)c3ccc(=[N+](CC)CC)cc-3oc2c1 (as salt: chloride) [Compound 23]
5. CC(=O)O[C@H]1CC[C@]2(C)[C@H]3CC=C4[C@@H]5CC(C)(C)CC[C@]5(C(=O)N5CCCNCC5)CC[C@@]4(C)[C@]3(C)CC[C@H]2[C@]1(C)C=O [Compound 10]
6. CC(=O)OC[C@@]1(C)[C@@H]2[C@H](O)C[C@]3(C)[C@H](CC=C4[C@@H]5[C@@H](C)[C@H](C)CC[C@]5(C(=O)Nc5ccccc5)CC[C@]43C)[C@@]2(C)C[C@@H](OC(C)=O)[C@@H]1OC(C)=O [Compound 16]
7. CC(=O)OC[C@@]1(C)[C@@H]2[C@H](O)C[C@]3(C)[C@H](CC=C4[C@@H]5[C@@H](C)[C@H](C)CC[C@]5(C(=O)N5CCCNCC5)CC[C@]43C)[C@@]2(C)C[C@@H](OC(C)=O)[C@@H]1OC(C)=O [Compound 18]

1: 150 to 152 °C; 2: 119 to 121 °C; 3: 150 to 154 °C; 4: 228 to 233 °C; 5: 176 to 179 °C; 6: 135 to 139 °C; 7: 146.5 to 150.5 °C
